For each of the compounds below, state its composite z-score.
# Assay summary: small-molecule microarray binders of probe aNog, primary screen, biochemical, biotinylated probe, 635/667 nm fluorescence (AID 1115);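 note: probe is biotinylated aNog protein used at 0.15 µg/mL for 1 h at 4 C; z-score combines 667 nm fluorescence of each spot with its signal to noise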
# Test conditions: higher = more signal
One number for each entry.

Compound: COCCOC(=O)N1C(=O)[C@@]2(c3ccccc31)[C@H](c1ccc(OCCO)cc1)N1[C@H](c3ccccc3)[C@H](c3ccccc3)OC(=O)[C@H]1[C@@H]2C(=O)Nc1nc2ccccc2s1
Reported result: 0.516
//
Compound: CC(C)CN1C(=O)[C@@]2(c3ccc([N+](=O)[O-])cc3)CC(=O)N(CC34CC5CC(CC(C5)C3)C4)[C@@H]2c2ccc(CO)cc21
Reported result: 0.884
//
Compound: CC(C)C(=C=CC[C@@H](O)c1ccccc1OCCO)C[C@@H](O)COCc1ccccc1
Reported result: 0.583
//
Compound: C=CC[C@@]12N=C(c3ccc(OCCCO)cc3)O[C@@H]1c1ccccc1N(CCS(=O)(=O)c1ccccc1)C2=O
Reported result: -0.0569
//
Compound: COC(=O)[C@@]1(Cc2ccc(OC)cc2)[C@H]2c3cc(C(=O)N4CCCC4)n(CCc4cc5ccccc5[nH]4)c3C[C@H]2CN1C(=O)c1ccccc1
Reported result: 2.21

Count: 2. Required value per item: composite z-score.
1. CCOC(=O)C1=CC[C@@H](c2ccccc2)N(S(=O)(=O)c2ccc(C)cc2)C1
2. CN1C(=O)C2C=CC(C(O)c3c(F)cccc3Cl)N(Nc3ccccc3)C2C1=O (configuration not stated)

Response:
1. 0.005
2. 0.707

###

I'd be grateful if you could share measured composite z-score for these entries.
# Measurement target: Torsin-1A (Homo sapiens)
# Assay summary: torsin A binders from cell lysate, primary screen, small-molecule microarray, wild-type, 635/667 nm (AID 1149)
# Test conditions: COS7 hTOR1A-WT lysate, 635 nm fluorescence, higher = more signal
One number for each entry.

Compound: Cc1ccc(S[C@]2(C(=O)NCC(F)(F)F)CC(=O)N(Cc3ccccc3)[C@@H]2c2ccc(CO)cc2)cc1
composite z-score: -0.2

Please report composite z-score for every entry that follows.
1. Cc1ccc(S[C@]2(C(=O)O)CC(=O)N(Cc3ccccc3Cl)[C@@H]2c2ccc(CO)cc2)cc1
2. CC(C)C(O)C1C=CC2C(=O)N(C)C(=O)C2N1Nc1ccccc1 (stereo not drawn)
3. COC(=O)C1(Cc2ccccc2)C=C2C(=C(C(C)C)C(=O)C2C)CN1 (stereo not drawn)
4. COc1ccc([Si](C)(C)[C@@H]2[C@@H](CC(=O)N3CCC[C@H]3CO)O[C@]3(C(=O)N(Cc4ccc(N5C(=O)c6cccc7cccc5c67)cc4)c4ccccc43)[C@H]2C)cc1
5. C=CC1c2cc(O)c(OC)cc2CCN1Cc1sc2ccccc2c1Cl (stereo not drawn)
6. CCC[C@@H]1C[C@@]1(CCC)[C@@H](NP(=O)(c1ccccc1)c1ccccc1)c1ccc(Cl)cc1
7. C[C@]12C(=O)N(CCCCCCO)[C@@H]3C(=O)N(c4ccc(Cl)cc4)CC=CC31O[C@@H]1/C=C\CCCOC(=O)C12 (stereo partly drawn)

Response:
1: -0.951; 2: 0.378; 3: 0.334; 4: 0.344; 5: -0.425; 6: -0.753; 7: -1.38

###

# Assay summary: basal RPMI8226 mitochondrial membrane potential changes, profiling panel, cell-based, JC-1 fluorescence, 24 h, 100 nL compound (AID 1169); note: test concentration not given here
# Test conditions: RPMI8226 myeloma, JC-1 mitochondrial potential fluorescence, higher = more signal
Observed property: z-score

Smiles code: Cc1ccc(S[C@]2(C(=O)NC3CC3)CC(=O)N(Cc3ccccc3Cl)[C@@H]2c2ccc(CO)cc2I)cc1
Observed property: z-score
Reported result: -0.498

Smiles code: CN(C)CCCNC(=O)[C@@]1(C)c2ccccc2C(=O)N(Cc2cc(C(F)(F)F)cc(C(F)(F)F)c2)[C@H]1c1ccc(CO)cc1
Observed property: z-score
Reported result: -0.0152

Smiles code: COCCOC(=O)N1C(=O)[C@@]2(c3cc(C#Cc4ccc(OC)cc4)ccc31)[C@H](C(=O)N1CCCCCCC1)[C@H]1C(=O)O[C@H](c3ccccc3)[C@H](c3ccccc3)N1[C@@H]2c1ccc(O)cc1
Observed property: z-score
Reported result: -0.0794

Smiles code: C=CCOC(=O)[C@H]1[C@@H]2C(=O)O[C@@H](c3ccccc3)[C@@H](c3ccccc3)N2[C@@H](c2ccc(OCCOC(=O)[C@H]3C[C@H]4C(=O)N[C@@H](Cc5ccccc5)C(=O)N4[C@H]3c3cccc(OCCO)c3)cc2)[C@]12C(=O)Nc1ccc(I)cc12
Observed property: z-score
Reported result: -0.713

Smiles code: C=C(COC)/C(=C/C[C@@H](OC(=O)c1ccncc1)c1cccc(OCCO)c1)c1cnc2ccccc2c1
Observed property: z-score
Reported result: 0.187

Query: Provide only the value of recorded z-score for CC(C)CN1C(=O)[C@@]2(c3ccc([N+](=O)[O-])cc3)CC(=O)N(CC34CC5CC(CC(C5)C3)C4)[C@@H]2c2ccc(CO)cc21
Response: 0.833

###

# Test system: Chordin-like protein 2 (CHRDL2)
# Assay summary: CHRDL2 small-molecule binders, primary screen, biochemical, small-molecule microarray, 635 nm fluorescence (AID 1126);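 note: printed compound slides probed with Chrdl2 protein at 4 µg/mL for 1 h at 4 C; score merges 667 nm emission intensity with signal to noise over three replicate slides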
# Test conditions: small-molecule microarray binding, fluorescence 635 nm; higher = more signal
Please go through the items and note down their composite z-score.

Some solved entries appear below for comparison.
Compound: CC(C)C(O)C1C=CC2C(=O)N(C)C(=O)C2N1N(c1ccccc1)c1ccccc1 (stereo not given)
composite z-score: -1.17

Compound: CC(C)(C)OC(=O)CC[C@]1(C(=O)NCCN2CCOCC2)N=C(c2ccc(OCCCO)cc2)O[C@H]1c1ccccc1
composite z-score: -1.21

Compound: CN(C)CCCNC(=O)[C@@H]1c2ccccc2C(=O)N(Cc2ccc(OC(F)(F)F)cc2)[C@H]1c1ccc(CO)cc1
composite z-score: 0.151

The following compounds each have a reported value; give each one's composite z-score.
1. O=C(CS)NCCCCCCNC(=O)[C@@H]1C[C@@H]2C(=O)N3CCC[C@H]3C(=O)N2[C@@H]1c1cccc(OCCO)c1
2. COC(=O)[C@@]1(Cc2ccccc2)[C@H]2c3cc(C(=O)N4CCCC4)n(Cc4cc(F)cc5c4OCOC5)c3C[C@H]2CN1C(=O)c1ccccc1
3. O=C1O[C@@H](c2ccccc2)[C@@H](c2ccccc2)N2[C@@H](c3ccccc3OCCO)[C@]3(C(=O)Nc4ccccc43)[C@@H](C(=O)NC[C@H](O)c3ccccc3)[C@H]12
4. C=CCOC(=O)[C@H]1[C@@H]2C(=O)O[C@@H](c3ccccc3)[C@@H](c3ccccc3)N2[C@@H](c2ccc(OCCOC(=O)[C@H]3C[C@H]4C(=O)N[C@@H](Cc5ccccc5)C(=O)N4[C@H]3c3cccc(OCCO)c3)cc2)[C@]12C(=O)Nc1ccc(I)cc12
5. O=c1cccc(-c2cccc(Cl)c2)o1

Response:
[0.454, -0.233, -1.15, 1.25, 0.0809]

// batch mode: one composite z-score value per listed entry
1. CCCCN1CC=CC23O[C@@H]4C=CCOC(=O)[C@@H]4[C@H]2C(=O)N(C(C)CO)[C@@H]3C1=O (stereo not given in full)
2. COc1ccc([Si](C)(C)[C@H]2[C@H](CCn3cc(CCO)nn3)O[C@@]3(C(=O)N(Cc4ccc(N5C(=O)c6cccc7cccc5c67)cc4)c4ccccc43)[C@@H]2C)cc1
3. COC(=O)[C@H](Cc1ccccc1)N1CC(/C=C/C2CC2)=C[C@@H]1[C@@H](O)Cc1ccccc1

Response:
-1.98
0.628
0.779

Give composite z-score for each listed item.
1. NCCCCCNC(=O)[C@@H]1C[C@@H]2C(=O)N[C@@H](CCCCN)C(=O)N2[C@@H]1c1cccc(OCCO)c1
2. O=C(O)[C@]1(Cc2ccccc2)N=C(c2ccc(OCCCO)cc2)O[C@@H]1c1ccccc1
3. O=C1NCC(=O)N2[C@@H]1C[C@@H](C(=O)O)[C@H]2c1ccc(O)cc1
4. CCCCC(CC)C(O)C1C=CC2C(=O)N(c3ccccc3)C(=O)C2N1Nc1ccc([N+](=O)[O-])cc1 (stereo not given)

Response:
1: 1.18; 2: -1.65; 3: 1.48; 4: 0.0772

###

# Measurement target: Follistatin (Homo sapiens) (UniProt P19883)
# Sequence (P19883 whole entry, looked up): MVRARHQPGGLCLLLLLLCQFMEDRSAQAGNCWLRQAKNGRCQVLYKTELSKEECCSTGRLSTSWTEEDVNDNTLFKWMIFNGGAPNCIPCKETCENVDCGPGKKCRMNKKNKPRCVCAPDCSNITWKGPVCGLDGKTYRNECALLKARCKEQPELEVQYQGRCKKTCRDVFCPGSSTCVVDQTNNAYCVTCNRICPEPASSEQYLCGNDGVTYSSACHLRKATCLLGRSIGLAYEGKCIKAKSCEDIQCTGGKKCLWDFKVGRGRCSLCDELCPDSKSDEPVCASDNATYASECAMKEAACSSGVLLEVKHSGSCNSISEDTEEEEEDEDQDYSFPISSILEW
# Assay summary: follistatin binders on small-molecule microarrays, primary screen, biochemical, small-molecule microarray, 635/667 nm fluorescence (AID 1132)
# Test conditions: FST binding, 635 nm fluorescence, higher = more signal
Assign true to entries whose composite z-score meets or exceeds 0.8; assign false to the rest.

Compound: COc1ccc([Si](C)(C)[C@H]2[C@H](CCn3cc([C@H](O)c4ccccc4)nn3)O[C@@]3(C(=O)N(Cc4ccc(N5CCOC5=O)cc4)c4ccccc43)[C@@H]2C)cc1
Measurement target: Follistatin (Homo sapiens) (UniProt P19883)
Category label: false

Compound: O=C1C[C@]2(c3ccc([N+](=O)[O-])cc3)C(=O)N(Cc3ccccc3)c3cc(CO)ccc3[C@H]2N1CC12CC3CC(CC(C3)C1)C2
Measurement target: Follistatin (Homo sapiens) (UniProt P19883)
Category label: false

Query: # check: composite z-score of CC(C)c1ccc(NN2C(C(O)c3ccco3)C=CC3C(=O)N(c4ccccc4)C(=O)C32)cc1 (stereo not drawn) is greater than or equal to 0.8
Response: true

Query: For this compound, is measured composite z-score 0.8 or higher? C=CCOC(=O)[C@H]1[C@@H]2C(=O)O[C@@H](c3ccccc3)[C@@H](c3ccccc3)N2[C@@H](c2ccc(OCCOC(=O)[C@H]3C[C@H]4C(=O)N[C@@H](Cc5ccccc5)C(=O)N4[C@H]3c3ccc(O)cc3)cc2)[C@]12C(=O)Nc1ccc(I)cc12
Response: true

Query: Does the compound C=C(COC)/C(=C/C[C@@H](OC(=O)c1ccncc1)c1ccc(OCCO)cc1)c1cnc2ccccc2c1 have recorded composite z-score that is 0.8 or more?
Response: true

Query: Could you please find out whether Cc1ccc(S[C@]2(C(=O)NCC(F)(F)F)CC(=O)N(Cc3ccccc3)[C@@H]2c2ccc(CO)cc2)cc1 has composite z-score that meets 0.8 or exceeds it?
Response: false

Query: # check: composite z-score of COCCOC(=O)N1C(=O)[C@@]2(c3cc(C#Cc4ccc(OC)cc4)ccc31)[C@H](C(=O)N1CCN(c3ncccn3)CC1)[C@H]1C(=O)O[C@H](c3ccccc3)[C@H](c3ccccc3)N1[C@@H]2c1ccccc1OCCO is greater than or equal to 0.8
Response: false

Query: Please tell me: is the compound COc1ccccc1CN1C(=O)c2ccccc2[C@](Cc2ccccc2I)(C(=O)NC(C)C)[C@@H]1c1ccc(CO)cc1 at or over 0.8 in terms of composite z-score?
Response: true

Query: Determine whether this compound has composite z-score no lower than 0.8: C=C(C(=O)CC[C@H](OC(=O)c1cccnc1)c1cccc(OCCO)c1)C(C)C
Response: false

Query: Given CCCCC(CC)C(O)C1C=CC2C(=O)N(c3ccccc3)C(=O)C2N1Nc1ccc([N+](=O)[O-])cc1 (stereo not drawn) , state whether its composite z-score is at least 0.8.
Response: true
